Reported EC50 (nM), OVCAR 5 cells (cAMP) is given for each of the following binders.
- measured.target: T1, RXFP1 receptor (UniProt Q9HBX9 1-757, limits assumed)
- T1 sequence (looked up): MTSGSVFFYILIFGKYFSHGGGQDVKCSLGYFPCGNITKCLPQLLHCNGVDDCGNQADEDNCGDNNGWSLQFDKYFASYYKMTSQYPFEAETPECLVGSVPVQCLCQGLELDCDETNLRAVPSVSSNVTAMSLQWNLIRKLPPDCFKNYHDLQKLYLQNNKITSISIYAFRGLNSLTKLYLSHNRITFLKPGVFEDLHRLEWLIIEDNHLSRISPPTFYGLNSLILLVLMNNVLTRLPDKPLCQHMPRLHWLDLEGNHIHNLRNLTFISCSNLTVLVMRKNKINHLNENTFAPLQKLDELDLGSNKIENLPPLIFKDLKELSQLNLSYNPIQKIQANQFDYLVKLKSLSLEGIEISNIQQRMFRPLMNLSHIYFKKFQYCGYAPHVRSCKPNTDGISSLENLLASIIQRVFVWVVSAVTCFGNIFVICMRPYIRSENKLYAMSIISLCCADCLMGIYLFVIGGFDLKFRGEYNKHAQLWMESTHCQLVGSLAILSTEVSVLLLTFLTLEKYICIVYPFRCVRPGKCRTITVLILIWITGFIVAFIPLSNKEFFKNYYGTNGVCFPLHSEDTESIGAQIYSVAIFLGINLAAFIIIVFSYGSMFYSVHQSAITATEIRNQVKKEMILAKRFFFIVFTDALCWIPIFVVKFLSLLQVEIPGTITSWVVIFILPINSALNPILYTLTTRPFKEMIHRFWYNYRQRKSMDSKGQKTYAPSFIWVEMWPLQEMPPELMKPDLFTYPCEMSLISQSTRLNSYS
- test.summary: cell-based or functional assay
*1 amine or outer side, *2 acyl side, *3 side chain or, on linkers, in order; H or OH if unused. Primed or numbered codes have the meaning given here. Side-chain parts run from the residue outwards. [ ]: non-standard residue; d: D form. The star is where a group is joined. γGlu = O=C(O)[C@H](CCC(=O)[*:2])N[*:1]; Pentadecanoyl = CCCCCCCCCCCCCCC(=O)*; Palmitoyl = CCCCCCCCCCCCCCCC(=O)*; αMeK = C[C@](N)(CCCCN)C(=O)O; Nle = CCCC[C@H](N)C(=O)O; PEG2′ = PEG2 spacer unit; Aib = CC(C)(N)C(=O)O
// return numeric value only (unit: nM, not printed)

Some solved entries appear below for comparison.
binder	recorded.measurement
Ac-LEGREKVRAK(Ac)I[Aib][Aib]EGQSTFS[αMeK]RAK(Ac)[PEG2′][PEG2′][PEG2′][PEG2′]K([γGlu-γGlu-γGlu-γGlu-Pentadecanoyl])-NH2 [peptide of SEQ ID NO: 182]	0.19
Ac-LEGREKVRAK(Ac)I[Aib][Aib]EGQSTFS[αMeK]RAK(Ac)[PEG2′][PEG2′][PEG2′][PEG2′]K([γGlu-γGlu-γGlu-γGlu-Palmitoyl])-NH2 [peptide of SEQ ID NO: 170]	0.01

Now for another entry.
[in] What does the record list as EC50 (nM), OVCAR 5 cells (cAMP) for Ac-LEGREKVRAQI[Aib][Aib]EG[Nle]STWS[Aib]RKK(Ac)[PEG2′][PEG2′][PEG2′][PEG2′][γGlu][γGlu]K([γGlu-Palmitoyl])-NH2 [peptide of SEQ ID NO: 121] ?
[out] 0.76
